- target: T1, UBXD1-PUB (150–264) K193E (UniProt Q9BZV1 150-264, K193E)
- T1 construct: UBXD1 PUB domain construct, residues 150-264, point mutant; source: E. coli Rosetta2, purified (Ni-NTA, thrombin cleavage of the tag, SEC); not shown: His6, N-terminal, cleaved
- T1 sequence (looked up): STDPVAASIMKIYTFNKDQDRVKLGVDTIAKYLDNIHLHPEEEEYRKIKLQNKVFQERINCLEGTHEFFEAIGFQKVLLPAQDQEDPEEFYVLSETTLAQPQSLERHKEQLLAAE
- test-details: fluorescence polarisation; fluorescence anisotropy; PUB constructs titrated to 100 nM 5,6-FAM labeled p97-C10 peptide; 50 mM NaKPi pH 6.5, 25 °C; triplicate; one-site quadratic fit
- stated-conditions: both partners purified
No end group written: not given here.
measurement-kind: Kd (µM)
Give a bare numeral; the unit µM is implied.

Ask: Indicate its recorded Kd; the binder in question is TEDNDDDLYG (also: 5,6-FAM label, position not given here, source: synthetic peptide, bought: Caslo ApS (Denmark)) [5,6-FAM-labeled p97-C10 peptide]
Reply: 17.7
